Target: recombinant human BCMA-his protein (Acro biosystems, Cat #BCA-H522Y) (human) (UniProt Q02223)
Sequence (Q02223 1-54, stated change not applied): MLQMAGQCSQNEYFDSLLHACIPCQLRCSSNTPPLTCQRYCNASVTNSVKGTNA
Test: BLI Octet RED96, antibody on AHC sensor, BCMA-his in solution
READOUT NAME: kon (M⁻¹ s⁻¹)
Output spec: scalar in M⁻¹ s⁻¹, unitless text.

Returns the measured kon for the input binder. Input: huB1H2-V21 (antibody, human IgG1, kappa, V domains shown) VH: QVQLVQSGAEVKKPGASVKVSCKASGYTLTNYVMHWMRQAPGQGLEWIGFIIPFNDGTKYNEHFKGRVTITRDTSISTAYMQLSSLRSEDTAVYYCARYDFEGYFDVWGQGTLVTVSS VL: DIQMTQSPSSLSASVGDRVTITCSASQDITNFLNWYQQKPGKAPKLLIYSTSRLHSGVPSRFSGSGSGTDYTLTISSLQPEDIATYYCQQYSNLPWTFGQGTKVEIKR 199000

Here is the next binder: huB1H2-V15 (antibody, human IgG1, kappa, V domains shown) VH: QVQLVQSGAEVKKPGASVKVSCKASGYTLTNYVMHWMRQAPGQGLEWIGFIIPFNDGTKYNEHFKGRVTITRDTSISTAYMQLSSLRSEDTAVYYCARYDFEGYFDVWGQGTLVTVSS VL: DIQMTQSPSSLSASVGDRVTITCSASQDITNFLNWYQQKPGKAVKLLIYSTSRLHSGVPSRFSGSGSGTDFTLTISSLQPEDIATYYCQQYSNLPWTFGQGTKVEIKR 226000

Here is the next binder: huB1H2-V10 (antibody, human IgG1, kappa, V domains shown, Humanized IgG1/kappa; cell supernatant in the Octet assay, purified antibody in Biacore, ELISA and FACS) VH: QVQLVQSGAEVKKPGASVKVSCKASGYTLTNYVMHWVRQAPGQGLEWIGFIIPFNDGTKYNEHFKGRVTITSDTSISTAYMQLSSLRSEDTAVYYCARYDFEGYFDVWGQGTLVTVSS VL: DIQMTQSPSSLSASVGDRVTITCSASQDITNFLNWYQQKPGKAPKLLIYSTSRLHSGVPSRFSGSGSGTDFTLTISSLQPEDIATYYCQQYSNLPWTFGQGTKVEIKR 363000

Here is the next binder: huB1H2-V3 (antibody, human IgG1, kappa, V domains shown) VH: QVQLVQSGAEVKKPGASVKVSCKASGYTLTNYVMHWMRQAPGQGLEWIGFIIPFNDGTKYNEHFKGRVTITRDTSISTAYMQLSSLRSEDTAVYYCARYDFEGYFDVWGQGTLVTVSS VL: DIQMTQSPSSLSASVGDRVTITCSASQDITNFLNWYQQKPGKTVKLLIYSTSRLHSGVPSRFSGSGSGTDYTFTISSLQPEDIATYYCQQYSNLPWTFGQGTKVEIKR 550000

Here is the next binder: huB1H2-V18 (antibody, human IgG1, kappa, V domains shown) VH: QVQLVQSGAEVKKPGASVKVSCKASGYTLTNYVMHWVRQAPGQGLEWIGFIIPFNDGTKYNEHFKGRVTITSDKSISTAYMQLSSLRSEDTAVYYCARYDFEGYFDVWGQGTLVTVSS VL: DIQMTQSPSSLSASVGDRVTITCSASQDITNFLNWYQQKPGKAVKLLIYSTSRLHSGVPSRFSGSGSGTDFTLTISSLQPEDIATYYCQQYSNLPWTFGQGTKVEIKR 415000

Here is the next binder: huB1H2-V1 (antibody, human IgG1, kappa, V domains shown) VH: EVQLVQSGAEVKKPGSSVKVSCKASGYTLTNYVMHWMRQAPGQGLEWIGFIIPFNDGTKYNEHFKGRATLTSDKSTNTAYMELSSLRSEDTAVYYCARYDFEGYFDVWGAGTLVTVSS VL: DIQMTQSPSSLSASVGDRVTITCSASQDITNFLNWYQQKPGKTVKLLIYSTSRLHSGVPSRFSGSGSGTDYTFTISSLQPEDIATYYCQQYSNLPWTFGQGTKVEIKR 407000

Here is the next binder: huB1H2-V24 (antibody, human IgG1, kappa, V domains shown) VH: QVQLVQSGAEVKKPGASVKVSCKASGYTLTNYVMHWVRQAPGQGLEWIGFIIPFNDGTKYNEHFKGRVTITSDKSISTAYMQLSSLRSEDTAVYYCARYDFEGYFDVWGQGTLVTVSS VL: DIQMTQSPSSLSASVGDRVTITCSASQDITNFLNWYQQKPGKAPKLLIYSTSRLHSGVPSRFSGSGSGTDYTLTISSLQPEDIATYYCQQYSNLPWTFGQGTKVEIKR 164000

Here is the next binder: huB1H2-V19 (antibody, human IgG1, kappa, V domains shown) VH: EVQLVQSGAEVKKPGSSVKVSCKASGYTLTNYVMHWMRQAPGQGLEWIGFIIPFNDGTKYNEHFKGRATLTSDKSTNTAYMELSSLRSEDTAVYYCARYDFEGYFDVWGAGTLVTVSS VL: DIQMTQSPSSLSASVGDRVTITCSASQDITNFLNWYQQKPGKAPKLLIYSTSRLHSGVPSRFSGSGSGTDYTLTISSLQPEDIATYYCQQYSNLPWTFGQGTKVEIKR 244000

Here is the next binder: huB1H2-V17 (antibody, human IgG1, kappa, V domains shown) VH: QVQLVQSGAEVKKPGASVKVSCKASGYTLTNYVMHWVRQAPGQGLEWIGFIIPFNDGTKYNEHFKGRVTITRDKSISTAYMQLSSLRSEDTAVYYCARYDFEGYFDVWGQGTLVTVSS VL: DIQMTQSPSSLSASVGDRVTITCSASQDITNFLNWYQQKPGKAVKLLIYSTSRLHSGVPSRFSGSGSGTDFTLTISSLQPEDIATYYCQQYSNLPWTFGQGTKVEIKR 260000

Here is the next binder: huB1H2-V5 (antibody, human IgG1, kappa, V domains shown) VH: QVQLVQSGAEVKKPGASVKVSCKASGYTLTNYVMHWVRQAPGQGLEWIGFIIPFNDGTKYNEHFKGRVTITRDKSISTAYMQLSSLRSEDTAVYYCARYDFEGYFDVWGQGTLVTVSS VL: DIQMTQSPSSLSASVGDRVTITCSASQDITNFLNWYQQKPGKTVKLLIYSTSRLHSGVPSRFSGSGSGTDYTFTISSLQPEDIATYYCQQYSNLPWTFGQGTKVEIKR 407000

Here is the next binder: huB1H2-V13 (antibody, human IgG1, kappa, V domains shown) VH: EVQLVQSGAEVKKPGSSVKVSCKASGYTLTNYVMHWMRQAPGQGLEWIGFIIPFNDGTKYNEHFKGRATLTSDKSTNTAYMELSSLRSEDTAVYYCARYDFEGYFDVWGAGTLVTVSS VL: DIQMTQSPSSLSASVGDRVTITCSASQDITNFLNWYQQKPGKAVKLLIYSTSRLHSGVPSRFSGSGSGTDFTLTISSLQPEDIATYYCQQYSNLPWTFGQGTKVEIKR 312000

From: patent US20230055711A1
